In this section, each of the compounds is paired with its reported ΔGobs CAIV.
Target: CAIV (Homo sapiens, UniProt P22748)
Sequence (P22748 19-312): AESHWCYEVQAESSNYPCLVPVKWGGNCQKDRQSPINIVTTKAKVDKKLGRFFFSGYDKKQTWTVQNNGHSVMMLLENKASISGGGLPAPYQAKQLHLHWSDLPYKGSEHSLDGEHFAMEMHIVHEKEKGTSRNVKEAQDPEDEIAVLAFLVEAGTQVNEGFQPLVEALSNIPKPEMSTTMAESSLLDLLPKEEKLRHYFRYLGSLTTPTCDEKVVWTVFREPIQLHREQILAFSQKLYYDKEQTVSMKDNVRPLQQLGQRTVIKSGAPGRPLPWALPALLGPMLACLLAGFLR
Test: fluorescent thermal shift assay (FTSA), CAIV
Assay type: binding
Settings: converted from Kd_obs, 37 °C, pH 7.0, FTSA

| compound | scale.unit | comparison.operator | ΔGobs CAIV |
| --- | --- | --- | --- |
| COC(=O)c1cc(S(N)(=O)=O)c(S(=O)(=O)CCc2ccccc2)cc1Cl | kcal/mol | ≥ | -5.26 |
| COC(=O)c1cc(S(N)(=O)=O)c(Cl)cc1S(=O)(=O)Cc1ccccc1 | kcal/mol | = | -9.94 |
| COC(=O)c1cc(S(N)(=O)=O)c(SC2CCCCCCCCCCC2)cc1Cl | kcal/mol | = | -9.51 |
| COC(=O)c1cc(S(N)(=O)=O)c(Cl)cc1SCCc1ccccc1 | kcal/mol | = | -8.48 |
| COC(=O)c1cc(S(N)(=O)=O)c(Cl)cc1S(=O)(=O)C1CCCCC1 | kcal/mol | = | -9.51 |
| COC(=O)c1cc(S(N)(=O)=O)c(Cl)cc1Cl [Compound 1, Methyl 2,4-dichloro-5-sulfamoyl-benzoate] | kcal/mol | = | -9.56 |
| COC(=O)c1cc(S(N)(=O)=O)c(Cl)cc1S(=O)(=O)c1cccc2ccccc12 | kcal/mol | = | -10.3 |
| COC(=O)c1cc(S(N)(=O)=O)c(S(=O)(=O)C2CCCCC2)cc1Br | kcal/mol | = | -6.17 |

###

In this section, each of the compounds is paired with its reported ΔHintr CAXII.
Biological target: CAXII (Homo sapiens)
Sequence (O43570 25-354): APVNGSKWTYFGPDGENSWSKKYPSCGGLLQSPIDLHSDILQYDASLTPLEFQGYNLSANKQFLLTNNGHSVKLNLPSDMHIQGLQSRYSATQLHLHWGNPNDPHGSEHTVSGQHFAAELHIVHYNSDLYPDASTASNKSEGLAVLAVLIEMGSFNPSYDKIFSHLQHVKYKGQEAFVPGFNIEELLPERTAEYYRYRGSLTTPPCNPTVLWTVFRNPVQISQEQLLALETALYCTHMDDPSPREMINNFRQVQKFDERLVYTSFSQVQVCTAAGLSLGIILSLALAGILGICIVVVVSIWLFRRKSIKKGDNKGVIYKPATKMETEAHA
Settings: intrinsic, 37 °C, independent of pH and buffer

| compound | scale.unit | ΔHintr CAXII |
| --- | --- | --- |
| COC(=O)c1cc(S(N)(=O)=O)c(SCCc2ccccc2)cc1Cl [Compound 3d] | kcal/mol | -12 |
| COC(=O)c1cc(S(N)(=O)=O)c(Cl)cc1SC1CCCCC1 [Compound 5b] | kcal/mol | -10.4 |
| COC(=O)c1cc(S(N)(=O)=O)c(Cl)cc1S(=O)(=O)c1ccccc1 [Compound 9a] | kcal/mol | -9.08 |
| COC(=O)c1cc(S(N)(=O)=O)c(SC2CCCCC2)cc1Cl [Compound 3b] | kcal/mol | -11.5 |

###

Target: CAVI (Homo sapiens)
Sequence (P23280 18-308): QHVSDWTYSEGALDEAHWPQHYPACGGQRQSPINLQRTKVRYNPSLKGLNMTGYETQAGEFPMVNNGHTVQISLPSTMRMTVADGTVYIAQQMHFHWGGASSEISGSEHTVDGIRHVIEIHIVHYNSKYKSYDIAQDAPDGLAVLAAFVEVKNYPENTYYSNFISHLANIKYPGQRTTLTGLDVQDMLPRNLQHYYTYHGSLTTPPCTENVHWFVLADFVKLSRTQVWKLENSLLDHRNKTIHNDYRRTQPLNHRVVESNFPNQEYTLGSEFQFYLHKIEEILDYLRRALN
Assay: fluorescent thermal shift assay (FTSA), CAVI
Format: binding
Settings: converted from Kd_intr, 37 °C, independent of pH

| compound | comparison.operator | ΔGintr CAVI, kJ/mol |
| --- | --- | --- |
| COC(=O)c1cc(S(N)(=O)=O)c(Cl)cc1S(=O)(=O)C1CCCCC1 [Compound 9b] | = | -57.3 |
| COC(=O)c1cc(S(N)(=O)=O)c(Br)cc1S(=O)(=O)c1ccccc1 [Compound 10a] | = | -56.0 |
| COC(=O)c1cc(S(N)(=O)=O)c(Cl)cc1Sc1cccc2ccccc12 [Compound 5f] | = | -49.3 |
| COC(=O)c1cc(S(N)(=O)=O)c(SC2CCCCCCCCCCC2)cc1Cl [Compound 3e] | = | -55.5 |
| COC(=O)c1cc(S(N)(=O)=O)c(SC2CCCCC2)cc1Br [Compound 4b] | = | -58.8 |
| COC(=O)c1cc(S(N)(=O)=O)c(SC2CCCCC2)cc1Cl [Compound 3b] | = | -60.1 |
| COC(=O)c1cc(S(N)(=O)=O)c(S(=O)(=O)Cc2ccccc2)cc1Cl [Compound 7c] | = | -45.8 |
| COC(=O)c1cc(S(N)(=O)=O)c(Cl)cc1S(=O)(=O)c1cccc2ccccc12 [Compound 9f] | = | -56.2 |
| COC(=O)c1cc(S(N)(=O)=O)c(Br)cc1Br [Compound 2, Methyl 2,4-dibromo-5-sulfamoyl-benzoate] | = | -55.8 |
| COC(=O)c1cc(S(N)(=O)=O)c(Cl)cc1Cl [Compound 1, Methyl 2,4-dichloro-5-sulfamoyl-benzoate] | = | -57.7 |
| COC(=O)c1cc(S(N)(=O)=O)c(Br)cc1Sc1ccccc1 [Compound 6a] | = | -58.3 |
| COC(=O)c1cc(S(N)(=O)=O)c(S(=O)(=O)C2CCCCC2)cc1Br [Compound 8b] | ≥ | -45.4 |
| COC(=O)c1cc(S(N)(=O)=O)c(S(=O)(=O)C2CCCCC2)cc1Cl [Compound 7b] | = | -44.9 |
| COC(=O)c1cc(S(N)(=O)=O)c(Cl)cc1SCCc1ccccc1 [Compound 5d] | = | -55.9 |
| COC(=O)c1cc(S(N)(=O)=O)c(Cl)cc1S(=O)(=O)CCc1ccccc1 [Compound 9d] | = | -59.6 |
| COC(=O)c1cc(S(N)(=O)=O)c(S(=O)(=O)CCc2ccccc2)cc1Cl [Compound 7d] | = | -45.8 |
| COC(=O)c1cc(S(N)(=O)=O)c(Cl)cc1Sc1ccccc1 [Compound 5a] | = | -60.2 |

Cited source: paper PMC8745178
